TARGET_UNDER_TEST: GST-TβR-I (Homo sapiens, UniProt P36897, T204D)
Construct: the complete cytoplasmic part (amino acid residues 148-503) of constitutively active TβR-I (T204D) FLAG-tagged at the C-terminus; made in house; host or cells: E. coli
Sequence (P36897 148-503 T204D): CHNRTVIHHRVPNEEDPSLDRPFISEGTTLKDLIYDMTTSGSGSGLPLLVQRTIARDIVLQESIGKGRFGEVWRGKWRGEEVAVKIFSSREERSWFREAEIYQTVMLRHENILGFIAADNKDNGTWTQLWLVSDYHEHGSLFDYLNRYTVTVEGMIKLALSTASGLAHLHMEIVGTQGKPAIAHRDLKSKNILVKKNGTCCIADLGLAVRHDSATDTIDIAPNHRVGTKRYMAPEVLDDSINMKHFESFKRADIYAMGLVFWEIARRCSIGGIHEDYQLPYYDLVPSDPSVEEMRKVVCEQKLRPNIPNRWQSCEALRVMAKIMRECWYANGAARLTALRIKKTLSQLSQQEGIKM
ASSAY_METHOD_TEXT: In vitro kinase assay: phosphorylation of GST-Smad3deltaMH1 by GST-TβR-I
Format: biochemical
MEASUREMENT_CONDITIONS: read-out: IC50 for inhibition of GST-TβR-I
RECORDED_METRIC: IC50 (nM)
Numbers only, in nM.

Input Oc1ccc(-c2nc(-c3ccncc3)c(-c3ccc(F)cc3)[nH]2)cc1 . Output IC50: 20
